Measured pre-steady-state target cleavage rate accompanies every entry in the list below.
- Test system: MIWI (PIWIL1) piRISC loaded with L1MC piRNA (30 nt);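 note: 1 nM active piRISC with 0.1 nM target library at 33 °C single turnover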
- Method Notes: pre-steady-state target cleavage rate (min^-1); higher = faster piRNA-guided slicing of the target
- Reported Conditions: guide: L1MC piRNA 5'p-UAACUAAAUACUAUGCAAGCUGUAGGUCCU; auxiliary factor: none (no GTSF1)
The full ranking holds about 8,200 sequences; the median of “pre-steady-state target cleavage rate” is about 0.024, and the highest 2% start at about 1.3. Only a selection was taken, and the highest values are over-represented in it overall.

{"columns": ["Monomer Sequence", "pre-steady-state target cleavage rate"],
 "data": [
  ["UCCUGGAACAGCAUGCAUAGUAUUUAGUAA", 0.0107],
  ["UGGACCAACAGCUUGCAUACUAUUUAGUUA", 0.0377],
  ["UGGACCUACAGCUUGCUUAGUAUAUAGUUA", 0.0175]
]}

###

- System: MIWI (PIWIL1) piRISC loaded with L1MC piRNA (30 nt);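 note: 1 nM active piRISC with 0.1 nM target library at 33 °C single turnover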
- Method Notes: pre-steady-state target cleavage rate (min^-1); higher = faster piRNA-guided slicing of the target
- Reported Conditions: guide: L1MC piRNA 5'p-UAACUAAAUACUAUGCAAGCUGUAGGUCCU; auxiliary factor: 500 nM mouse GTSF1
In all, about 8,200 sequences were measured (“pre-steady-state target cleavage rate”: median about 0.024, highest 2% from about 1.3 on). The sample as a whole holds a higher share of the highest values than the screen did.
Measured pre-steady-state target cleavage rate accompanies every entry in the list below.

{"columns": ["Monomer Sequence", "Qualifier Operator", "pre-steady-state target cleavage rate"],
 "data": [
  ["UCCUGGAACAGCUGGCAUAGUAUUUAGUUA", "=", 0.759],
  ["UCGACCUACAGUCUUGCAUAGUAUUUAGUUA", "=", 1.16],
  ["UGCACCUACAGCUAGCAUAGUAUUUAGUUA", "=", 1.22],
  ["UCCUGGAUGUCGAACGUAUGUAUUUUAGUUA", "<", 0.0001],
  ["UCCUGGAACAGCUUGCAGUAGUAUUUAGUUA", "=", 0.00503],
  ["UCCUGGAUGUCGAUGCAUAGUAUUUAGUUA [g2:g17:cont:t1A]", "=", 0.0169],
  ["UCGACCUACGGCUUGCAUAGUAUUUAGUUA", "=", 1.35],
  ["UCCUGCUACCGCUUGCAUAGUAUUUAGUUA", "=", 1.1],
  ["UCCUGCUACAGCUUGCAUUGUUUUUAGUUA", "=", 0.0845],
  ["UCCUGGAACUCCUUGCAUAGUAUUUAGUUA", "=", 0.46],
  ["UGGACCAUCAGCUUGCAUAGUAUUUAGUAA", "=", 1.05],
  ["UCCUGCAACAGCAUGCAUAGUAUUUAGUUA", "=", 1.36],
  ["UCGACCUACAUCUUGCAUAGUAUUUAGUUA", "=", 1.61],
  ["UCCUGGUACACGUUGCAUAGUAUUUUCAAA", "=", 0.0245],
  ["UCGACCUACAGGCUUGCAUAGUAUUUAGUUA", "=", 1.07]
]}

###

- System: MIWI (PIWIL1) piRISC loaded with L1MC piRNA (30 nt);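 note: 1 nM active piRISC with 0.1 nM target library at 33 °C single turnover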
- Method Notes: pre-steady-state target cleavage rate (min^-1); MIWI and MILI are mouse PIWI proteins and EfPiwi is from a freshwater sponge; tags in brackets are library labels; higher = faster piRNA-guided slicing of the target;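 note: 1 nM active piRISC with 0.1 nM target library at 33 °C single turnover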
- Reported Conditions: guide: L1MC piRNA 5'p-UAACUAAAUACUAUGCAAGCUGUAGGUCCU; auxiliary factor: none (no GTSF1)
In all, about 8,200 sequences were measured (“pre-steady-state target cleavage rate”: median about 0.024, highest 2% from about 1.3 on). The entries come from a sample that favours the highest values as a whole.

{"columns": ["Monomer Sequence", "Study System", "pre-steady-state target cleavage rate"],
 "data": [
  ["UGGUCGUACAGCUUGCAUAGUAUUUAGUUA", "MIWI (PIWIL1) piRISC loaded with L1MC piRNA (30 nt)", 0.073],
  ["UCCUGGAUGUGCUUUGCAUAGUAUUUAGUUA", "MIWI (PIWIL1) piRISC loaded with L1MC piRNA (30 nt)", 0.0142],
  ["UCGACCUACAGGCUUGCAUAGUAUUUAGUUA", "MIWI (PIWIL1) piRISC loaded with L1MC piRNA (30 nt)", 0.07],
  ["AGCUCCUACAGCUUGCAUAGUAUUUAGUAA", "MIWI (PIWIL1) piRISC loaded with L1MC piRNA (30 nt)", 0.0506],
  ["UCGACCUACAGGUUGCAUAGUAUUUACUUA", "MIWI (PIWIL1) piRISC loaded with L1MC piRNA (30 nt)", 0.025],
  ["UCCUGGAUCAGCAUGCAUAGUAUUUAGAUA", "MIWI (PIWIL1) piRISC loaded with L1MC piRNA (30 nt)", 0.00494]
]}
